B1: Intersectin-2, residues 1129 to 1183; numbered along this chain, Q9NZM3 (parent)
chain: VCQVIAMYDYAANNEDELSFSKGQLINVMNKDDPDWWQGEINGVTGLFPSNYVKM

Variants of: B1
assay text: abundance fitness (aPCA) (normalised: wild type 0, dead -1); higher = more abundant; growth selection in yeast, the domain comes from the species named
condition description: Homo sapiens

{"mutations": "L25S", "abundance fitness": -0.01}
{"mutations": "V44E", "abundance fitness": -0.108}
{"mutations": "K22W", "abundance fitness": -0.362}
{"mutations": "D32M", "abundance fitness": -0.043}
{"mutations": "Y52S", "abundance fitness": -0.066}
{"mutations": "F48D", "abundance fitness": -0.806}
{"mutations": "S19F", "abundance fitness": -0.256}
{"mutations": "D32K", "abundance fitness": -0.007}
{"mutations": "N14G", "abundance fitness": -0.024}
{"mutations": "P49S", "abundance fitness": -0.195}
{"mutations": "T45P", "abundance fitness": -0.083}
{"mutations": "C2D", "abundance fitness": -0.041}
{"mutations": "M55W", "abundance fitness": -0.255}
{"mutations": "W36A", "abundance fitness": -0.092}
{"mutations": "Q24L", "abundance fitness": -0.199}
{"mutations": "E17Q", "abundance fitness": -0.042}
{"mutations": "G46K", "abundance fitness": -0.1}
{"mutations": "I5S", "abundance fitness": -0.134}
{"mutations": "G23P", "abundance fitness": -1.06}
{"mutations": "V1C", "abundance fitness": -0.307}
{"mutations": "P34S", "abundance fitness": -0.013}
{"mutations": "D35I", "abundance fitness": 0.03}
{"mutations": "A12S", "abundance fitness": -0.056}
{"mutations": "A6I", "abundance fitness": -0.988}
{"mutations": "P49A", "abundance fitness": -0.193}
{"mutations": "Q24D", "abundance fitness": 0.022}
{"mutations": "N27G", "abundance fitness": -0.122}
{"mutations": "F20A", "abundance fitness": -0.998}
{"mutations": "V1D", "abundance fitness": -0.043}
{"mutations": "Q3L", "abundance fitness": -0.134}
{"mutations": "Y10N", "abundance fitness": -0.249}
{"mutations": "E40N", "abundance fitness": -0.143}
{"mutations": "I41M", "abundance fitness": -0.032}
{"mutations": "D16N", "abundance fitness": -0.068}
{"mutations": "S21Y", "abundance fitness": -0.12}
{"mutations": "N14E", "abundance fitness": -0.044}
{"mutations": "V28F", "abundance fitness": -0.778}
{"mutations": "G39R", "abundance fitness": -1.06}
{"mutations": "D35M", "abundance fitness": -0.1}
{"mutations": "L18H", "abundance fitness": -0.512}
{"mutations": "V1S", "abundance fitness": -0.21}
{"mutations": "Q24F", "abundance fitness": -0.015}
{"mutations": "L18F", "abundance fitness": -0.2}
{"mutations": "Q24C", "abundance fitness": -0.151}
{"mutations": "Y10T", "abundance fitness": -0.865}
{"mutations": "Y52D", "abundance fitness": -0.575}
{"mutations": "V28Q", "abundance fitness": -1.04}
{"mutations": "F20D", "abundance fitness": -1.03}
{"mutations": "E15C", "abundance fitness": -0.048}
{"mutations": "I5Q", "abundance fitness": -0.085}
{"mutations": "N51S", "abundance fitness": -0.02}
{"mutations": "M7F", "abundance fitness": -0.168}
{"mutations": "Q24N", "abundance fitness": -0.05}
{"mutations": "Y8V", "abundance fitness": -0.045}
{"mutations": "V28R", "abundance fitness": -0.718}
{"mutations": "I5W", "abundance fitness": -0.056}
{"mutations": "W36T", "abundance fitness": 0.011}
{"mutations": "S19G", "abundance fitness": -0.052}
{"mutations": "D33G", "abundance fitness": -0.043}
{"mutations": "C2M", "abundance fitness": -0.13}
{"mutations": "G43W", "abundance fitness": -0.404}
{"mutations": "Y52C", "abundance fitness": -0.042}
{"mutations": "F48P", "abundance fitness": -0.718}
{"mutations": "I26N", "abundance fitness": -0.719}
{"mutations": "M7K", "abundance fitness": -0.139}
{"mutations": "N42C", "abundance fitness": 0.014}
{"mutations": "K22T", "abundance fitness": -0.064}
{"mutations": "N51F", "abundance fitness": -0.141}
{"mutations": "N13E", "abundance fitness": -0.017}
{"mutations": "N51M", "abundance fitness": -0.071}
{"mutations": "S21F", "abundance fitness": -0.117}
{"mutations": "V4E", "abundance fitness": -0.405}
{"mutations": "Q24V", "abundance fitness": -0.078}
{"mutations": "F20M", "abundance fitness": -0.26}
{"mutations": "A11Q", "abundance fitness": -0.003}
{"mutations": "D16P", "abundance fitness": -0.075}
{"mutations": "D32S", "abundance fitness": -0.063}
{"mutations": "E15F", "abundance fitness": -0.12}
{"mutations": "M7W", "abundance fitness": -0.188}
{"mutations": "Y10G", "abundance fitness": -0.761}
{"mutations": "D32T", "abundance fitness": -0.075}
{"mutations": "K31Y", "abundance fitness": -0.103}
{"mutations": "L25H", "abundance fitness": -0.054}
{"mutations": "E17M", "abundance fitness": -0.037}
{"mutations": "Q24Y", "abundance fitness": -0.153}
{"mutations": "I26E", "abundance fitness": -0.789}
{"mutations": "K22N", "abundance fitness": -0.025}
{"mutations": "D32P", "abundance fitness": 0.084}
{"mutations": "I41P", "abundance fitness": -1.01}
{"mutations": "I26A", "abundance fitness": -0.961}
{"mutations": "Q3T", "abundance fitness": -0.047}
